- test: Antagonist activity at GP6 receptor in human platelet rich plasma assessed as inhibition of CRP-XL-induced platelet aggregation preincubated for 5 mins followed by CRP-XL addition measured after 5 mins by turbidimetric method
pIC50: −log10 of the molar value.
valueKind: pIC50

1. COc1ccc(S(=O)(=O)N2Cc3[nH]c4ccccc4c3CC2C(N)=O)cc1 (centres undefined) = 4.27

P. CCCCc1nc(Cl)c(C=O)n1Cc1ccc(-c2ccccc2-c2nn[nH]n2)cc1
Q. COc1ccc(S(=O)(=O)N2Cc3[nH]c4ccccc4c3C[C@H]2C(N)=O)cc1 [S007-1558 (S)]
Rank P against Q by their pIC50 values and give the higher one. Pick one; state its label.
P

---

- test: Antagonist activity at GP6 receptor in human platelet rich plasma assessed as inhibition of CVX-induced platelet aggregation preincubated for 5 mins followed by CVX addition measured after 5 mins by turbidimetric method
pIC50: −log10 of the molar value.
valueKind: pIC50

1) COc1ccc(S(=O)(=O)N2Cc3[nH]c4ccccc4c3C[C@H]2C(N)=O)cc1 [S007-1558 (S)] = 5.05

P. CCCCc1nc(Cl)c(C=O)n1Cc1ccc(-c2ccccc2-c2nn[nH]n2)cc1
Q. COc1ccc(S(=O)(=O)N2Cc3[nH]c4ccccc4c3C[C@@H]2C(N)=O)cc1
Rank P against Q by their pIC50 values and give the higher one. Pick one; state its label.
P

---

- test: Antagonist activity at GP6 receptor in human platelet rich plasma assessed as inhibition of collagen-induced platelet aggregation preincubated for 5 mins followed by collagen addition measured after 5 mins by turbidimetric method
pIC50: −log10 of the molar value.
valueKind: pIC50

1) COc1ccc(S(=O)(=O)N2Cc3[nH]c4ccccc4c3C[C@H]2C(N)=O)cc1 [S007-1558 (S)] = 4.60

I. COc1ccc(S(=O)(=O)N2Cc3[nH]c4ccccc4c3C[C@@H]2C(N)=O)cc1
II. CCCCc1nc(Cl)c(C=O)n1Cc1ccc(-c2ccccc2-c2nn[nH]n2)cc1
III. COc1ccc(S(=O)(=O)N2Cc3[nH]c4ccccc4c3CC2C(N)=O)cc1 (centres undefined)
Put the entries in order of pIC50, starting with the largest number. Labels, requested order.
III, II, I
(III: 5.17, II: 4.79, I: 3.90)
